- protocol.details: Components of the Cytosolic LPS Sensing Pathway: Gene Identification via Genome-wide siRNA Screen;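 note: robust z of the log signal after scaling to non-targeting control siRNA wells of the plate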
- stated.conditions: RAW264.7 macrophages, IL-1a HTRF, actives lie on both sides, screened at 100 nM (by protocol), cells primed 5 h with Pam3CSK4 first
- Description: Non-canonical inflammasome activation by cytosolic LPS is a critical component of the host response to Gram-negative bacterial infection, however we lack a comprehensive understanding of the cellular processes that control this pathway. […] Lipofectamine RNAiMAX Transfection Reagent ([…]; Invitrogen) was added in […] serum-free, antibiotic-free media to plate wells using a Thermo Scientific Matrix WellMate and Microplate Stacker. […] The plates were read on an EnVision plate reader (PerkinElmer). […]
About 3,700 (7%) of roughly 53,000 sequences were called active. This excerpt belongs to a sample that is enriched for actives.
test.readout: z-score

INSERT INTO measurements (ordered_residues, test_readout, observed_result) VALUES
  ('GCCUAUCUACGACCUCAUCTT against Kel', 'z-score', -0.768),
  ('GGAACUCAUGUGAAGCUCCTT against Ssu72', 'z-score', -0.544),
  ('GGAACUGGAAAUCUCAGAGTT against Pcdh12', 'z-score', 0.447),
  ('GGAUCAUUGUUCUCUCAAGTT against Psmg2', 'z-score', 0.186),
  ('GCCUGAGUUAUGUUUAAAGTT against Pgam5', 'z-score', 0.00362),
  ('GGGAUCCUUAUUUCAUACUTT against Olfr868', 'z-score', 1.16),
  ('GCUGUUAGACCUCUUGAUUTT against Olfr1164', 'z-score', 0.0632),
  ('GCCUAAGCCCUUAAAGCGUTT against Lrrc41', 'z-score', 0.643),
  ('GGAGGUGGAAUCUUUCCCUTT against Aplp1', 'z-score', -1.68),
  ('GCUAUCAUGAAGCUAAAUGTT against Igf2bp1', 'z-score', 0.267),
  ('GCCUGUGCAAAAAGUAGGGTT against Grasp', 'z-score', -0.0182),
  ('GGUCGAAGUAUUGGAAAAUTT against Hesx1', 'z-score', -1.71);

----------
- protocol.details: Components of the Cytosolic LPS Sensing Pathway: Gene Identification via Genome-wide siRNA Screen;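 note: robust z of the log signal after scaling to non-targeting control siRNA wells of the plate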
- stated.conditions: RAW264.7 macrophages, IL-1a HTRF, actives lie on both sides, screened at 100 nM (by protocol), cells primed 5 h with Pam3CSK4 first
About 3,700 (7%) of roughly 53,000 sequences were called active.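 Rule for the calls: active = gene knockdowns whose robust z-score for IL-1 alpha signal is at least 2 or at most -2, so actives lie on both sides; inactive = the rest.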 This excerpt belongs to a sample that is enriched for actives.
Labels: T = active, F = inactive

INSERT INTO measurements (ordered_residues, class_name) VALUES
  ('CCCUCACAAUGAUCGAUUUTT against Tkt', 'F'),
  ('GCAGAGGCUCGUCCAUAUATT against Dnpep', 'F'),
  ('GGUCUAUGAAGAGAAGACUTT against Mtres1', 'F'),
  ('GGCUUUGAACACCAGUGAATT against Rpp21', 'F'),
  ('GGAGGAAGCUGAACUCUGGTT against Ehmt2', 'F'),
  ('GGAUCAAUCCACAGACGACTT against Dbr1', 'F'),
  ('GCCUGAUGUUGUUUCCAAATT against Lias', 'T'),
  ('GCUGGCUUUGAUUUAUGGATT against Prkar1a', 'T'),
  ('CCCUGACCUUGUGGUAGAATT against Aspdh', 'F'),
  ('GGUCAUCUUACAGUUUAAATT against Smap2', 'F'),
  ('GUUUCCAUAUCCUUUAAGUTT against Lilr4b', 'F'),
  ('GGAACAGUUCAAGUGAAGCTT against Sertad2', 'F'),
  ('CCACCCUUCUUCUAUCGAATT against Ybx2', 'F'),
  ('GGUGAACUUGUGUCUCACUTT against Tango2', 'F'),
  ('GUGCAGAUAUCUUUAGCAATT against Olfr159', 'F'),
  ('GGAGAUGAUUGACCGGCUATT against Epc1', 'F'),
  ('GUUCCACUACUUCUGCUCCTT against Olfr583', 'F'),
  ('GCUUUUGGUACAGGAUGCCTT against 5830411N06Rik', 'T'),
  ('CCGAGUGGUUAGCUACCAGTT against Ccl24', 'T'),
  ('GGCAUUGAUCACUGACAGCTT against 9530077C05Rik', 'F'),
  ('GCCUUAAUGCUUCAAGGUGTT against Hspd1', 'F'),
  ('GCUGAAAACUAGUCAGUCCTT against Epn3', 'F'),
  ('GCCGUCUUGUGUGUAUCAATT against Olfr1342', 'F'),
  ('GGUUGCUCACUCAUUUAACTT against Pa2g4', 'T'),
  ('GGAAGUCCAACUUCUUCCATT against Ebf4', 'F');

Ref: PubChem BioAssay AID1508600
